test system: Salmon testes DNA; test: Displacement of SYBR-green from salmon sperm DNA assessed as DNA intercalation by measuring reduction in fluorescence at 5 to 20 uM after 5 mins by fluorescent intercalator displacement assay; type: nucleic-acid assay; details: Salmonidae
The source made the active and inactive calls. The calls are words filed in the database; no cut-off is given here.
Outcomes: active, inactive

- Molecule: "CCOc1ccc2cc(C3CC(c4ccc(-c5ccc(Cl)nc5)cc4)=NN3C(=O)CCCC(=O)NCCCN3CCOCC3)c(Cl)nc2c1 (configuration not stated)"
  Category label: "inactive"
- Molecule: "CCOc1ccc2cc(C3CC(c4ccc(-c5ccco5)cc4)=NN3C(=O)CCCC(=O)O)c(Cl)nc2c1 (configuration not stated)"
  Category label: "inactive"
- Molecule: "CCOc1ccc2cc(C3CC(c4ccc(I)cc4)=NN3C(=O)CCCC(=O)NCCCN3CCOCC3)c(Cl)nc2c1 (configuration not stated)"
  Category label: "inactive"
- Molecule: "COc1cccc2c1C(=O)c1c(O)c3c(c(O)c1C2=O)C[C@@](O)(C(=O)CO)C[C@@H]3O[C@H]1C[C@H](N)[C@H](O)[C@H](C)O1"
  Category label: "active"
- Molecule: "CCOc1ccc2cc(C3CC(c4ccc(-c5ccc(Br)nc5)cc4)=NN3C(=O)CCCC(=O)O)c(Cl)nc2c1 (configuration not stated)"
  Category label: "inactive"
- Molecule: "CCOc1ccc2cc(C3CC(c4ccc(-c5ccc(Cl)nc5)cc4)=NN3C(=O)CCCC(=O)O)c(Cl)nc2c1 (configuration not stated)"
  Category label: "inactive"
- Molecule: "CCOc1ccc2cc(C3CC(c4ccc(N)cc4)=NN3C(=O)CCCC(=O)O)c(Cl)nc2c1 (configuration not stated)"
  Category label: "inactive"
